target: 5-HT2C receptor (Homo sapiens); test: Human 5-HT2C functional assay (beta-arrestin2 recruitment, U2OS_HTR2C_β-Arrestin cells); conditions: U2OS_HTR2C_β-Arrestin cells, 1.5 h incubation; compounds used as acid addition salts; read-out: EC50 5-HT2C (potency in functional assay)
Sequence (P28335 33-458): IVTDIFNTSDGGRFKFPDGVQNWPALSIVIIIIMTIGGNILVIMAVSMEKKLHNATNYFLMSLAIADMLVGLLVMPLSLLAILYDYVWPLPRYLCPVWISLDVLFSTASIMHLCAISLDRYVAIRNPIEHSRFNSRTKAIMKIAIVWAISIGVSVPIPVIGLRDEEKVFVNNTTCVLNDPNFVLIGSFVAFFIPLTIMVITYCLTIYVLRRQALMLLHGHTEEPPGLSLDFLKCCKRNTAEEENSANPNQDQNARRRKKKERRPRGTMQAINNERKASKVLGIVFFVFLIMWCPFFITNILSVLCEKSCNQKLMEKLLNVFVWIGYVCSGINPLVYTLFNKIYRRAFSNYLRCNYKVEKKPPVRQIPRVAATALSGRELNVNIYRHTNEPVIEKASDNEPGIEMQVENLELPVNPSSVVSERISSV
Sequence (P32121 whole entry partner): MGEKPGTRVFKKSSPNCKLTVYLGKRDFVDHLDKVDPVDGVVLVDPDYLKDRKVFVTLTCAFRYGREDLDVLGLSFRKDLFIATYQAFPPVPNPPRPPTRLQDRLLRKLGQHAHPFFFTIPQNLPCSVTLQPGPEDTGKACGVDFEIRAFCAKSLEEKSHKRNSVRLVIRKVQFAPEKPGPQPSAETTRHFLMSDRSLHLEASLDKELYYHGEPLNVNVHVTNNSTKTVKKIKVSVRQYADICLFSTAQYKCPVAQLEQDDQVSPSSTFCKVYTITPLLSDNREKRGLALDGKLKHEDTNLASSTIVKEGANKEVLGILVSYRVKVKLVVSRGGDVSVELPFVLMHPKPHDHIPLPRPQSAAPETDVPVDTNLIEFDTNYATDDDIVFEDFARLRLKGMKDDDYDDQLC
pEC50: −log10 of the molar value.

{"columns": ["COMPOUND", "pEC50"],
 "data": [
  ["COc1cc(OCc2c(F)ccc(F)c2Cl)c(F)cc1CNC(=O)[C@@H]1CCCN1", "7.52 to 7.82"],
  ["COc1cc(OCCC(F)(F)F)c(F)cc1CNC(=O)[C@@H]1CCCN1", "7.52 to 7.82"],
  ["COc1cc(OCc2cncc(F)c2)c(F)cc1CNC(=O)[C@@H]1CCCN1", "7.52 to 7.82"],
  ["COc1cc(OCc2cc(F)cc(F)c2F)c(F)cc1CNC(=O)[C@@H]1CCCN1", "7.82 to 8.30"],
  ["COc1cc(OCCc2ccc(F)cc2)c(F)cc1CNC(=O)[C@@H]1CCCN1", "7.82 to 8.30"],
  ["COc1cc(OCC(C)CC(F)(F)F)c(F)cc1CNC(=O)[C@@H]1CCCN1 (some centres unmarked)", "> 8.30"],
  ["COc1cc(O[C@H]2CC[C@H](F)CC2)c(F)cc1CNC(=O)[C@@H]1CCCN1", "7.82 to 8.30"],
  ["COc1cc(O[C@H]2CC[C@H](C(F)(F)F)CC2)c(F)cc1CNC(=O)[C@@H]1CCCN1C", "7.52 to 7.82"]
]}

All figures here come from patent US20200039930A1.
